test: Pharmacokinetic/toxicokinetic study and BBB permeability in rats; type: in vivo, rat; settings: male, Sprague-Dawley, rat, brain/plasma, ip, 10 mg/kg
measured.attribute: Kp
Please reply with the number alone, leaving off any unit.

Recorded Kp (compound CCc1ccc(CC/C=C/c2ccc3c(c2)C(=O)CC3)cc1 ): 5.13

---

assay: Pharmacokinetic/toxicokinetic study and BBB permeability in rats; assay type: in vivo, rat; conditions: Sprague-Dawley, rat, plasma, po, 10 mg/kg
measured.attribute: Cmax (ng/mL)
Please respond with the number in ng/mL and leave the unit unwritten.

Recorded Cmax (molecule CCc1ccc(CC/C=C/c2ccc3c(c2)C(=O)CC3)cc1 [ELB00824] ): 350

---

experiment: Pharmacokinetic/toxicokinetic study and BBB permeability in rats; type: in vivo, rat; conditions: Sprague-Dawley, rat, plasma, po, 10 mg/kg
measured.attribute: Tmax (h)
Please respond with the number in h and leave the unit unwritten.

Recorded Tmax (compound CCc1ccc(CC/C=C/c2ccc3c(c2)C(=O)CC3)cc1 [ELB00824] ): 1

---

molecular target: hERG potassium channel (Homo sapiens, UniProt Q12809)
Sequence (Q12809 whole entry): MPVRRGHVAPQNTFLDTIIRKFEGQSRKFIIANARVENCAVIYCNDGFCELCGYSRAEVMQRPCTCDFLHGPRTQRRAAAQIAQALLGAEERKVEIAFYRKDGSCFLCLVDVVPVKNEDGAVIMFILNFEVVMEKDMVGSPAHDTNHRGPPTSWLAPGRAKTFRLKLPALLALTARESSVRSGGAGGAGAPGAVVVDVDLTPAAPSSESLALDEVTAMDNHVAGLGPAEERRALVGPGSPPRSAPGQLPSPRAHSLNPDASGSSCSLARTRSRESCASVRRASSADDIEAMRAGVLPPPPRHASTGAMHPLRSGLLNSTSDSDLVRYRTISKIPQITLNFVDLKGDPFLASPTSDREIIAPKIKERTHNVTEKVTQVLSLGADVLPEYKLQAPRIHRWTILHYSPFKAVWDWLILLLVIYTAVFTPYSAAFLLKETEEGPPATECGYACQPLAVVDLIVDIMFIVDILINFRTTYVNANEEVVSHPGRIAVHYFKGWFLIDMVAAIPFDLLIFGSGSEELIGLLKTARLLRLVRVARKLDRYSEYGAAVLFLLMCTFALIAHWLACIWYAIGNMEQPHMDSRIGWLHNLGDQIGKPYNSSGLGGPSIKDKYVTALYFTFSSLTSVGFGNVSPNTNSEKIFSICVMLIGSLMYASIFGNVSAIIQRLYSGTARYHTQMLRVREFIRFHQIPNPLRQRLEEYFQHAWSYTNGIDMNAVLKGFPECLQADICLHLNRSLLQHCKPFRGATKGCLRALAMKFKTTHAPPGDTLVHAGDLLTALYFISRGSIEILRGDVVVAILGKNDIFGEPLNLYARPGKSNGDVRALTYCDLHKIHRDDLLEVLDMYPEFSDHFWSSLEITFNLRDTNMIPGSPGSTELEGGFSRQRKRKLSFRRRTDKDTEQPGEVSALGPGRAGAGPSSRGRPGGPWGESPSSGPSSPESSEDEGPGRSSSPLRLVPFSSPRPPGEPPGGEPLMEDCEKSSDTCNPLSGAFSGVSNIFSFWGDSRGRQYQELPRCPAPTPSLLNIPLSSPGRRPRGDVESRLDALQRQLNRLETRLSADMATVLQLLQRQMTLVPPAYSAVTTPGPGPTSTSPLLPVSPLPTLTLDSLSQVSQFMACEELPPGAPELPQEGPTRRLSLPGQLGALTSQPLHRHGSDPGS
measured.attribute: IC50

Recorded IC50 (compound CCc1ccc(CC/C=C/c2ccc3c(c2)C(=O)CC3)cc1 [ELB00824] ): > 30 µM

---

assay: Pharmacokinetic/toxicokinetic study and BBB permeability in rats; type: in vivo, rat; conditions: Sprague-Dawley, rat, plasma, po, 10 mg/kg
measured.attribute: AUC(0-t) (ng·h/mL)
Please respond with the number in ng·h/mL and leave the unit unwritten.

Recorded AUC(0-t) (compound CCc1ccc(CC/C=C/c2ccc3c(c2)C(=O)CC3)cc1 ): 3030

---

assay: Pharmacokinetic/toxicokinetic study and BBB permeability in rats; assay type: in vivo, rat; conditions: Sprague-Dawley, rat, brain, po, 10 mg/kg
measured.attribute: Tmax (h)
Please respond with the number in h and leave the unit unwritten.

Recorded Tmax (compound CCc1ccc(CC/C=C/c2ccc3c(c2)C(=O)CC3)cc1 ): 3
